Target: C-terminal-binding protein 1 (Homo sapiens) (UniProt Q13363)
Assay: qHTS for Inhibitors of the Phosphatase Activity of Eya2: Carboxyl-terminal binding protein (CtBP) Counterscreen for Cherry-picked Compounds; also: nearly all actives have a fitted effect of over 65% in size
Conditions: purified protein-protein binding, AlphaScreen, 3 h; series mostly up to 46.1 µM
Description: The Eya protein family is an essential co-activator of the Six1 transcription factor. Six1 is a developmental gene that is abnormally re-expressed in a large percentage of breast cancers. This over-expression plays a causal role in the initiation and metastatic development of breast cancers. […] A 1536 well format, fluorescence based qHTS assay was developed and used to target the phosphatase activity of Eya2 (AID 488837). […]
Hit rate of the full screen: of about 1,300 compounds, about 420 (32%) were called active. Another 32% or so got no clear call; they are omitted. Calls follow the shape of the dose curve; as a rule, active = well fitted inhibition curve with a large enough effect; inconclusive = small, poorly fitted or top-dose-only effect; inactive = no such curve, though single readings can be large or run the other way. The list shows a part of the results.
The categories you may choose from are Yes for active, No for inactive

Example results:
# molecule, tested_system, label_class
data = [
    ("O=C(CNC(=O)c1cccs1)OCC(=O)c1ccc(Cl)cc1", "C-terminal-binding protein 1 (Homo sapiens) (UniProt Q13363)", "No"),
    ("Cc1cccc(NC(=S)N(CCN2CCOCC2)Cc2cc3cc4c(cc3[nH]c2=O)OCCO4)c1", "C-terminal-binding protein 1 (Homo sapiens) (UniProt Q13363)", "No"),
    ("COc1ccc(Nc2nc(N)nc(CSC(=S)N3CCCCC3)n2)cc1", "C-terminal-binding protein 1 (Homo sapiens) (UniProt Q13363)", "No"),
    ("COc1cc(NC(=O)c2cccs2)c(OC)cc1NC(=O)Cc1ccccc1", "C-terminal-binding protein 1 (Homo sapiens) (UniProt Q13363)", "Yes"),
    ("CCn1c(C)cc(/C=C2/SC(=O)N(C(C)C(=O)OC)C2=O)c1C (stereo not given)", "C-terminal-binding protein 1 (Homo sapiens) (UniProt Q13363)", "No"),
    ("COc1cc(NC(=O)c2cccs2)c(OC)cc1NC(=O)CCC(=O)Nc1ccc2ncccc2c1", "C-terminal-binding protein 1 (Homo sapiens) (UniProt Q13363)", "Yes"),
    ("CC1(C)CC(=O)C=C(c2ccc(COC(=O)c3cc(F)cc(F)c3)cc2)C1=O", "C-terminal-binding protein 1 (Homo sapiens) (UniProt Q13363)", "No"),
    ("Cc1c(C(=O)O)cccc1-c1ccc(/C=C2\\SC(=O)NC2=O)o1", "C-terminal-binding protein 1 (Homo sapiens) (UniProt Q13363)", "No"),
]

What did this assay record as the result for COc1cc(NC(=O)c2cccs2)c(OC)cc1NC(=O)CCn1nnc2ccccc21 ?
Yes

Outcome? Cc1oc2c(Cl)c(Cl)c(O)c(CN(C)C)c2c1C(=O)c1ccc(Cl)cc1
Yes

====

Target: C-terminal-binding protein 1 (Homo sapiens) (UniProt Q13363)
Experiment: qHTS for Inhibitors of the Phosphatase Activity of Eya2: Carboxyl-terminal binding protein (CtBP) Counterscreen for Cherry-picked Compounds; also: nearly all actives have a fitted effect of over 65% in size
Settings: purified protein-protein binding, AlphaScreen, 3 h; series mostly up to 46.1 µM
Text: The Eya protein family is an essential co-activator of the Six1 transcription factor. Six1 is a developmental gene that is abnormally re-expressed in a large percentage of breast cancers. This over-expression plays a causal role in the initiation and metastatic development of breast cancers. […] A 1536 well format, fluorescence based qHTS assay was developed and used to target the phosphatase activity of Eya2 (AID 488837). […]
Out of some 1,300 compounds screened, about 420 (32%) were called active. Roughly 32% stayed inconclusive and do not appear here. Calls come from the whole dose curve; as a rule, active = well fitted inhibition curve with a large enough effect; inconclusive = small, poorly fitted or top-dose-only effect; inactive = no such curve, though single readings can be large or run the other way. Some of the results follow.
Your response should consist of one outcome taken from 1.0 (active), 0.0 (inactive)

# compound, label_class
records = [
    ("NC(=O)c1c(NC(=O)c2ccc(N3C(=O)CCC3=O)cc2)sc2c1CCCC2", 1.0),
    ("CCCC(=O)NC(=S)Nc1sc2c(c1C(N)=O)CCC2", 0.0),
    ("FC(F)(F)c1ccc(CN2C[C@@H]3C(c4ccc(Cl)nc4)C4(c5cccnc5)CC3(C4)[C@H]2c2ccccc2)cc1 (stereo not given in full)", 0.0),
    ("CS(=O)(=O)c1ccc(-c2nnc(NC(=O)C3=COCCO3)o2)cc1", 0.0),
    ("COc1ccc(NC(=O)c2ccc(COc3ccccc3)o2)c(OC)c1", 0.0),
]

For Cc1sc(NC(=O)C2=COCCO2)c(C(N)=O)c1C , what call appears in the results of this test?
0.0

So what was the verdict on COc1ccc(C(=O)Nc2nnc(-c3ccccc3)o2)cc1OC in this test?
1.0

Check the results log: what was the call for CC1CCCN(S(=O)(=O)c2ccc(C(=O)Nc3nnc(-c4ccco4)o3)cc2)C1 (stereo not given) ?
0.0

So what was the verdict on CCc1ccc(NC(=O)COC(=O)c2ccccc2OCC(=O)N(C)C)cc1 in this test?
0.0

Called result for NC(=O)c1c(NC(=O)c2cnccn2)sc2c1CCCC2
1.0

====

Target: C-terminal-binding protein 1 (Homo sapiens) (UniProt Q13363)
Test: qHTS for Inhibitors of the Phosphatase Activity of Eya2: Carboxyl-terminal binding protein (CtBP) Counterscreen for Cherry-picked Compounds; also: nearly all actives have a fitted effect of over 65% in size; also: potency is read from the fitted curve at half-maximal effect
Settings: purified protein-protein binding, AlphaScreen, 3 h; series mostly up to 46.1 µM
Hit rate of the full screen: of about 1,300 compounds, about 420 (32%) were called active. Not shown: some 32% with an inconclusive outcome. The list shows a part of the results.
measured_attribute: Potency

# molecule, assay_result
measured = [
    ("CN(C)CCCN1c2ccc(O)cc2Sc2ccc(Cl)cc21", "12 µM (active)"),
    ("CCC(=O)c1cn(CC(=O)Nc2c(C)cccc2C)c2ccccc12", "inactive"),
    ("CN1/C(=C\\C=C2/SC(=S)NC2=O)C(C)(C)c2ccccc21", "12 µM (active)"),
    ("Cc1ccccc1OCCn1cc(C(=S)N2CCN(C)CC2)c2ccccc21", "15.1 µM (active)"),
    ("Cc1cc2oc(C(=O)N3CCN(Cc4ccccc4)CC3)c(C)c2cc1C", "inactive"),
]

Field: next molecule
I would be grateful if you could share the reported Potency for COc1ccc(-c2nnc(NC(=O)c3ccc(S(=O)(=O)N(C)CC4CCCO4)cc3)o2)c(OC)c1 (stereo unspecified) .
16.9 µM (active)

====

Molecular target: C-terminal-binding protein 1 (Homo sapiens) (UniProt Q13363)
Assay: qHTS for Inhibitors of the Phosphatase Activity of Eya2: Carboxyl-terminal binding protein (CtBP) Counterscreen for Cherry-picked Compounds; also: nearly all actives have a fitted effect of over 65% in size
Details: purified protein-protein binding, AlphaScreen, 3 h; series mostly up to 46.1 µM
Excerpt: The Eya protein family is an essential co-activator of the Six1 transcription factor. Six1 is a developmental gene that is abnormally re-expressed in a large percentage of breast cancers. This over-expression plays a causal role in the initiation and metastatic development of breast cancers. […] A 1536 well format, fluorescence based qHTS assay was developed and used to target the phosphatase activity of Eya2 (AID 488837). […]
Out of some 1,300 compounds screened, about 420 (32%) were called active. Inconclusive results (about 32%) are left out. The call rests on the fitted dose curve; in most records, active means well fitted inhibition curve with a large enough effect; inconclusive means small, poorly fitted or top-dose-only effect; inactive means no such curve, though single readings can be large or run the other way. Some of the results follow.
Would you mind answering with one of these outcomes? t for active, f for inactive

Illustrative cases are given below, each with its answer.
# compound, label_class
rows = [
    ("CN1/C(=C\\C(=S)NC(=O)c2ccccc2Cl)C(C)(C)c2ccccc21", "t"),
    ("CC(=O)Nc1ccc(NC(=O)COc2ncnc3ccccc23)cc1", "f"),
    ("O=c1c2ccccc2nnn1CSc1nnc(C2COc3ccccc3O2)n1-c1ccccc1 (stereo not given)", "f"),
    ("Cc1ccc(C(=O)ON=C2CCN(c3ccc([N+](=O)[O-])cc3)CC2)cc1", "f"),
    ("CN(C)c1ccc(NC(=O)CC(NCc2ccccn2)C(=O)O)cc1 (stereo not given)", "t"),
]

Test call, this compound: CCC(=O)N1N=C(c2ccc(C)o2)CC1c1ccc(N(C)C)cc1 (stereo not given)
f

Assay result, entry C[C@H](O)[C@@H]1CN2CCc3c([nH]c4ccc(-c5ccc6c(c5)OCO6)cc34)[C@@H]2C[C@@H]1N(C)C(=O)NC1CCCCC1 — outcome?
f

====

Target: C-terminal-binding protein 1 (Homo sapiens)
Assay: qHTS for Inhibitors of the Phosphatase Activity of Eya2: Carboxyl-terminal binding protein (CtBP) Counterscreen for Cherry-picked Compounds; also: nearly all actives have a fitted effect of over 65% in size
Details: purified protein-protein binding, AlphaScreen, 3 h; series mostly up to 46.1 µM
Hit rate of the full screen: of about 1,300 compounds, about 420 (32%) were called active. About 32% were inconclusive and are not listed. Calls follow the shape of the dose curve; as a rule, active = well fitted inhibition curve with a large enough effect; inconclusive = small, poorly fitted or top-dose-only effect; inactive = no such curve, though single readings can be large or run the other way. This is one part of the list.
Valid outcomes are listed here; reply with one: Yes (active), No (inactive)

Examples with answers:
# compound, label_class
measured = [
    ("CN1C(=O)NC(c2ccccc2)(C(F)(F)F)S/C1=C(/C#N)c1nnc(N2CCOCC2)n1-c1ccccc1 (stereo unspecified)", "No"),
    ("COc1cc2c(cc1OC)-c1cc(Nc3ccc(C)cc3)nc(=O)n1CC2", "Yes"),
    ("CCOc1ccc(S(=O)(=O)N2CCN(C)CC2)cc1NC(=O)c1ccccc1F", "Yes"),
    ("COc1ccc(-c2cn(Cc3ccc4c(c3)C(=O)c3ccccc3C4=O)nn2)cc1", "No"),
    ("COc1ccc(NC(=O)c2cc(S(=O)(=O)N3CCc4ccccc43)cn2C)cc1OC", "No"),
    ("CCC(C)c1ccc2oc(-c3ccc(NC(=O)c4ncn[nH]4)cc3)nc2c1 (stereo unspecified)", "Yes"),
]

For CC(C)c1ccc2oc(-c3ccc(NC(=O)c4ncn[nH]4)cc3)nc2c1 , what call appears in the results of this test?
Yes

Assay result, entry COc1ccc(Cc2nc3c4c(ncn3n2)Oc2ccc3ccccc3c2C4c2ccc(OC)c(OC)c2)cc1 (stereo unspecified) — outcome?
No

# outcome recorded in this test, key = Cc1ccc(C(=O)Oc2ccc(N3C(=O)CCC3=O)c(C)c2)cc1
No

What did this assay record as the result for C/C=C/c1ccc(OCCSc2nc(C)cc(=O)[nH]2)c(OC)c1 ?
Yes

For this compound, state the assay outcome: CCOc1cc(/C=C2/NC(=O)NC2=O)cc(Br)c1OCc1ccc(C(=O)O)cc1
No

How was O=C(O)c1ccc2c(=O)n3cc(C(=O)c4ccccc4O)cc(Cl)c3nc2c1 classified in this test?
Yes

Fill in: this test's call for CCOc1ccc(Nc2cc3n(c(=O)n2)CCc2cc(OC)c(OC)cc2-3)cc1 is ___
Yes

Test call, this compound: O=S(=O)(Nc1nnc(-c2ccccc2)s1)c1ccc(Cl)cc1
Yes

For this compound, state the assay outcome: CCOc1ccc(S(=O)(=O)Nc2cc(SCC(=O)O)c(O)c3ccccc23)cc1
Yes

What was the test verdict on Cc1ccccc1N=C1NC(=O)/C(=C/c2cccn2C)S1 ?
No

Outcome? COc1ccc(Br)cc1CNC(=O)c1ccc2c(c1)N(C)CCS2
No

Recorded test call requested for COc1cc2c(cc1OC)-c1cc(Nc3ccccc3)nc(=O)n1CC2
Yes
